# STUDY SYSTEM: T1, NPY5R
# T1 sequence (Q15761 1-445, species assumed, looked up): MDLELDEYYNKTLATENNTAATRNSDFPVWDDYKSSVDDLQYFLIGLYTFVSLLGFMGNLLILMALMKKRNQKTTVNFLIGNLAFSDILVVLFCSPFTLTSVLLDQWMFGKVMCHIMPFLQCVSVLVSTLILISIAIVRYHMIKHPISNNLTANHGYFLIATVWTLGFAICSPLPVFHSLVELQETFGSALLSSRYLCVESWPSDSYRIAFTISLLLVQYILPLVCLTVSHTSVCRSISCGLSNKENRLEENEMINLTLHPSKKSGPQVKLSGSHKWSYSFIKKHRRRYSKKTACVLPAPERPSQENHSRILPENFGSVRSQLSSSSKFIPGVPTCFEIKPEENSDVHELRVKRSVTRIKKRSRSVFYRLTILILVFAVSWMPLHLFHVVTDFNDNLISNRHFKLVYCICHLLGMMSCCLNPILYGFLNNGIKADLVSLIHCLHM
# METHOD NOTES: cell-based or functional assay
Starred links: 1 amine or outer side, 2 acyl side, 3 side chain; linkers in the order of their positions; H or OH if unused. Positions of bridges follow the written chain, without caps; N, C: chain ends. Non-standard residues stand in square brackets, D forms with d. Groups on a side chain read outwards from the residue. No end group written: not given here. *: point of attachment. C20 diacid = O=C(O)CCCCCCCCCCCCCCCCCCC(=O)*; γGlu = O=C(O)[C@H](CCC(=O)[*:2])N[*:1]; hSer = N[C@@H](CCO)C(=O)O; αMeS = C[C@](N)(CO)C(=O)O
MEASURED PARAMETER: NPY5R pEC50

PKPEAPGK([γGlu-γGlu-C20 diacid])DASPEEWDRYYKDLRHYLNWLTRQRF-NH2 (lactam 16-20) [Compound A42] = 9.1 -Log(EC50, M)
PKPEAPGK([γGlu-γGlu-C20 diacid])DASPEEW[hSer]RYYKDLRHYLNWLTRQRF-NH2 [Compound A30] = 8.5 -Log(EC50, M)

I'd like to know its NPY5R pEC50. The binder in question is PKPEAPGK([γGlu-γGlu-C20 diacid])DASPKEWDRYYKDLRHYLNWLTRQRF-NH2 [Compound A76]
8.9 -Log(EC50, M)

Quick one: NPY5R pEC50 of PKPEAPGK([γGlu-γGlu-C20 diacid])DASPKEWNRYYKDLRHYLNWLTRQRF-NH2 [Compound A20] ?
8.7 -Log(EC50, M)

May I ask what NPY5R pEC50 has been recorded for PKPEAPGK([γGlu-γGlu-C20 diacid])DASPEEWERYYKDLRHYLNWLTRQRF-NH2 (lactam 16-20) [Compound A41] ?
9.3 -Log(EC50, M)

Fill in: NPY5R pEC50 of PKPEAPGK([γGlu-γGlu-C20 diacid])DASPEEWNRKYKDLRHYLNWLTRQRF-NH2 [Compound A68] is ___
7.9 -Log(EC50, M)

Tell me the measured NPY5R pEC50 of PKPEAPGK([γGlu-γGlu-C20 diacid])DASPEEW[αMeS]RYYKDLRHYLNWLTRQRF-NH2 [Compound A31] , please.
8.7 -Log(EC50, M)

Using the record for PKPEAPG[dK]([γGlu-γGlu-C20 diacid])DASPEEWNRYYADLRHYLNWLTRQRF-NH2 [Compound A15] , report its NPY5R pEC50.
8 -Log(EC50, M)

Consider the binder shown here: PKPEAPGK([γGlu-γGlu-C20 diacid])DASPEKWNRYYKDLRHYLNWLTRQRF-NH2 [Compound A67] What is its recorded NPY5R pEC50?
8.5 -Log(EC50, M)

I have this binder here, PKPEAPGK([γGlu-γGlu-C20 diacid])DASPEEWSRYYKDLRHYLNWLTRQRF-NH2 [Compound A25] , and I need its recorded NPY5R pEC50.
8.4 -Log(EC50, M)
